ASSAY_NOTES: Inhibition of human voltage-dependent L-type calcium channel subunit alpha1C/alpha2delta/beta2a expressed in C1-6-37-3 cells assessed as inhibition of K+-induced calcium influx incubated for 30 mins prior to K+-induction by Fluo-4-AM based FLIPR assay
Format: cell-based
Where a SMILES comes first, the peptide text is derived from it. [ ]: non-standard residue; d: D form. NMeF = CN[C@@H](Cc1ccccc1)C(=O)O
MEASURED_QUANTITY: log10(IC50) (log10 of the value in µM)
Please interpret these as log10 of IC50 where IC50 is in µM.

Worked examples follow.
- COMPOUND: "CC[C@H](C)[C@@H]1NC(=O)[C@H](Cc2ccccc2)N(C)C(=O)[C@H]([C@@H](C)CC)NC(=O)[C@H](Cc2ccccc2)N(C)C1=O (cyclo(I[NMeF]I[NMeF]))"
  log10(IC50): 0.70
- COMPOUND: "CC[C@H](C)[C@@H]1NC(=O)[C@H](Cc2ccccc2)N(C)C(=O)[C@H](C(C)C)NC(=O)[C@H](Cc2ccccc2)N(C)C1=O (cyclo(I[NMeF]V[NMeF]))"
  log10(IC50): 0.85
- COMPOUND: "CC(C)[C@@H]1NC(=O)[C@H](Cc2ccccc2)N(C)C(=O)[C@H](C(C)C)NC(=O)[C@H](Cc2ccccc2)N(C)C1=O (cyclo([NMeF]V[NMeF]V))"
  log10(IC50): 0.79

Dear colleague, please send me the reported log10(IC50) for COc1ccc(CCN(C)CCCC(C#N)(c2ccc(OC)c(OC)c2)C(C)C)cc1OC (stereo unspecified) when you can. -0.05

Dear colleague, please send me the reported log10(IC50) for CCOC(=O)C1=C(C)NC(C)=C(C(=O)OC)C1c1cccc([N+](=O)[O-])c1 (stereo unspecified) when you can. -2.52

Dear colleague, please send me the reported log10(IC50) for COc1ccc([C@@H]2Sc3ccccc3N(CCN(C)C)C(=O)[C@@H]2OC(C)=O)cc1 when you can. 0.34
